B1: Twister Ribozyme (parent)
chain: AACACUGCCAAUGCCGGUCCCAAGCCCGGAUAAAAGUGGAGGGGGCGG

# Variants of: B1
# experimentalDetails: self-cleavage, relative activity (ratio to wild type); higher = more cleavage; co-transcriptional
// classify(record): look up self-cleavage in ranges group 1 (below 0.2), group 2 (0.2 to below 0.5), group 3 (0.5 or more)

sequence: AACACUGCCAAUGCCGGUCCCAAGCCCGGAAAAAAGUGGAGGGGGCGA [U31A G48A]
labelClass: group 3

sequence: AACACUACCAAUGCCGGUCCCAAGCCCGGAUAAAAGUGGAGGGGGCCG [G7A G47C]
labelClass: group 1

sequence: AACACUGGCAAUGCCGGCCCCAAGCCCGGAUAAAAGUGGAGGGGGCGG [C8G U18C]
labelClass: group 1

sequence: AUCACUGCCAAUGCCGGUCCCAAGCCCGGAUAAAAGUGGAGGGCGCGG [A2U G44C]
labelClass: group 2

sequence: AACACUGCCAAUGCCGGUCCCAAGCCCGGAUAAAAGUUGAGGGGGCUG [G38U G47U]
labelClass: group 3

sequence: AACACUGCCAAUGCCGGACCCAAGCCCGGAUAUAAGUGGAGGGGGCGG [U18A A33U]
labelClass: group 2

sequence: AACACCGCCAAUGCCGGUCCCAAGCGCGGAUAAAAGUGGAGGGGGCGG [U6C C26G]
labelClass: group 1

sequence: AACACUGCCAAUGCCGGUCCCAAGCCCGGAUACUAGUGGAGGGGGCGG [A33C A34U]
labelClass: group 3

sequence: AACACUGCCCAUGCCGGUCCCAAGCCCGGCUAAAAGUGGAGGGGGCGG [A10C A30C]
labelClass: group 3

sequence: AACAAUGCCAAUGCCGGUCCCAAGCCCGGAUAAAAGUGGAGGGGGCGC [C5A G48C]
labelClass: group 3

sequence: AACACUGCCAAUGCCAGUCCCAAGCGCGGAUAAAAGUGGAGGGGGCGG [G16A C26G]
labelClass: group 1

sequence: AAUACUGCCAAUGCCGGUCCCAAGCCCGGAUAAAAGGGGAGGGGGCGG [C3U U37G]
labelClass: group 2

sequence: AACACUGCCAAUGCCGGUCCCAGGCCCGGAUAAAAGUGGAGGGGGGGG [A23G C46G]
labelClass: group 2

sequence: AACCCUGCCAAUGCCGGUCCCAAGCCCGGAUAAGAGUGGAGGGGGCGG [A4C A34G]
labelClass: group 1

sequence: AACACUGACAAUGCCGGUCCCAAGCCCGGAUAAAAGUGGAGGGGGCCG [C8A G47C]
labelClass: group 1

sequence: AACACUGCCAAUGCCGGUCCGAAGCCCGGAUAACAGUGGAGGGGGCGG [C21G A34C]
labelClass: group 1

sequence: AACACUGCCAAUGCCGGUCCCAAGCCCGGAUUAUAGUGGAGGGGGCGG [A32U A34U]
labelClass: group 3

sequence: AACACUGCCAAUGCCGGUCCGAAGCCCGGGUAAAAGUGGAGGGGGCGG [C21G A30G]
labelClass: group 1

sequence: AACACUGCCAAUGCCGUUCCCAACCCCGGAUAAAAGUGGAGGGGGCGG [G17U G24C]
labelClass: group 1

sequence: AACACUGCCAAUACCGGUCCCAAGCCCGGAUAAAAGGGGAGGGGGCGG [G13A U37G]
labelClass: group 2
